Each recorded value in this set is attributed to patent US20020055528A1.

Measured Log10TGI by item
- System: MALME-3M
- Protocol Details: NCI 60 cell line screen (SRB), Melanoma
- Assay type: cell-based
- Measurement Context: PG=0
Numeric answer only, unit log10M assumed.

Answered examples (4):
Please fill in: Log10TGI reported for "C[C@@H]1CC[C@H]2[C@@H](C)C(=O)O[C@@H]3O[C@]4(C)CC[C@@H]1[C@]32OO4" = −4.06

Please fill in: Log10TGI reported for CC1=C(C=Cc2cccc(C=CC3=C(C)C4CCC(C)C5CCC6(C)OOC45C(O3)O6)c2)OC2OC3(C)CCC4C(C)CCC1C24OO3 (centres unmarked) [VII-f] = −4.82

Please fill in: Log10TGI reported for CC(=O)O[C@H]1C(=O)[C@@]2(C)[C@H]([C@H](OC(=O)c3ccccc3)[C@]3(O)C[C@H](OC(=O)[C@H](O)[C@@H](NC(=O)c4ccccc4)c4ccccc4)C(C)=C1C3(C)C)[C@]1(OC(C)=O)CO[C@@H]1C[C@@H]2O [Paclitaxel, paclitaxel, reference compound] = −4.46

Please fill in: Log10TGI reported for CC1=C(C=Cc2cccc(C=CC3=C(C)C4CCC(C)C5CCC6(C)OOC45C(O3)O6)c2)OC2OC3(C)CCC4C(C)CCC1C24OO3 (centres unmarked) [VII-h] = −4.17

Further cases:
Please fill in: Log10TGI reported for CC1=C(C=Cc2cccc(C=CC3=C(C)C4CCC(C)C5CCC6(C)OOC45C(O3)O6)c2)OC2OC3(C)CCC4C(C)CCC1C24OO3 (centres unmarked) [VII-g] = −4.24

* * *

Measured Log10TGI by item
- Tested on: NCI-H226
- Protocol Details: NCI 60 cell line screen (SRB), Non-Small Cell Lung Cancer
- Assay type: cell-based
- Measurement Context: PG=0

Answered examples (3):
Please fill in: Log10TGI reported for "C[C@@H]1CC[C@H]2[C@@H](C)C(=O)O[C@@H]3O[C@]4(C)CC[C@@H]1[C@]32OO4" = >−4.00 log10M

Please fill in: Log10TGI reported for CC1=C(C=Cc2cccc(C=CC3=C(C)C4CCC(C)C5CCC6(C)OOC45C(O3)O6)c2)OC2OC3(C)CCC4C(C)CCC1C24OO3 (centres unmarked) [VII-h] = >−4.00 log10M

Please fill in: Log10TGI reported for CC(=O)O[C@H]1C(=O)[C@@]2(C)[C@H]([C@H](OC(=O)c3ccccc3)[C@]3(O)C[C@H](OC(=O)[C@H](O)[C@@H](NC(=O)c4ccccc4)c4ccccc4)C(C)=C1C3(C)C)[C@]1(OC(C)=O)CO[C@@H]1C[C@@H]2O [Paclitaxel, paclitaxel, reference compound] = −4.80 log10M

Further cases:
Please fill in: Log10TGI reported for CC1=C(C=Cc2cccc(C=CC3=C(C)C4CCC(C)C5CCC6(C)OOC45C(O3)O6)c2)OC2OC3(C)CCC4C(C)CCC1C24OO3 (centres unmarked) [VII-g] = >−4.00 log10M

Please fill in: Log10TGI reported for CC1=C(C=Cc2cccc(C=CC3=C(C)C4CCC(C)C5CCC6(C)OOC45C(O3)O6)c2)OC2OC3(C)CCC4C(C)CCC1C24OO3 (centres unmarked) [VII-f] = >−4.00 log10M

* * *

- System: MB231/ATCC (second line of the wrapped label, with values of its own)
- Protocol Details: NCI 60 cell line screen (SRB), Breast Cancer
- Format: cell-based
- Measurement Context: PG=+50
Measured Log10GI50 by item
Numeric answer only, unit log10M assumed.

Answered examples (2):
The value of Log10GI50 recorded for CC1=C(C=Cc2cccc(C=CC3=C(C)C4CCC(C)C5CCC6(C)OOC45C(O3)O6)c2)OC2OC3(C)CCC4C(C)CCC1C24OO3 (stereo not shown) [VII-f] when tested on MB231/ATCC (second line of the wrapped label, with values of its own) reads −6.13

The value of Log10GI50 recorded for CC1=C(C=Cc2cccc(C=CC3=C(C)C4CCC(C)C5CCC6(C)OOC45C(O3)O6)c2)OC2OC3(C)CCC4C(C)CCC1C24OO3 (stereo not shown) [VII-g] when tested on MB231/ATCC (second line of the wrapped label, with values of its own) reads −7.10

Further cases:
The value of Log10GI50 recorded for CC1=C(C=Cc2cccc(C=CC3=C(C)C4CCC(C)C5CCC6(C)OOC45C(O3)O6)c2)OC2OC3(C)CCC4C(C)CCC1C24OO3 (stereo not shown) [VII-h] when tested on MB231/ATCC (second line of the wrapped label, with values of its own) reads −7.31

* * *

Measured Log10GI50 by item
- System: SW-620
- Protocol Details: NCI 60 cell line screen (SRB), Colon Cancer
- Format: cell-based
- Measurement Context: PG=+50
Numeric answer only, unit log10M assumed.

Answered examples (3):
Please fill in: Log10GI50 reported for CC(=O)O[C@H]1C(=O)[C@@]2(C)[C@H]([C@H](OC(=O)c3ccccc3)[C@]3(O)C[C@H](OC(=O)[C@H](O)[C@@H](NC(=O)c4ccccc4)c4ccccc4)C(C)=C1C3(C)C)[C@]1(OC(C)=O)CO[C@@H]1C[C@@H]2O [Paclitaxel, paclitaxel, reference compound] = −11.60

Please fill in: Log10GI50 reported for CC1=C(C=Cc2cccc(C=CC3=C(C)C4CCC(C)C5CCC6(C)OOC45C(O3)O6)c2)OC2OC3(C)CCC4C(C)CCC1C24OO3 (stereo not shown) [VII-f] = −5.90

Please fill in: Log10GI50 reported for CC1=C(C=Cc2cccc(C=CC3=C(C)C4CCC(C)C5CCC6(C)OOC45C(O3)O6)c2)OC2OC3(C)CCC4C(C)CCC1C24OO3 (stereo not shown) [VII-h] = −7.59

Further cases:
Please fill in: Log10GI50 reported for CC1=C(C=Cc2cccc(C=CC3=C(C)C4CCC(C)C5CCC6(C)OOC45C(O3)O6)c2)OC2OC3(C)CCC4C(C)CCC1C24OO3 (stereo not shown) [VII-g] = −7.22

* * *

Measured Range of Log10GI50 (Table IV) by item
- Tested on: 60 cell line panel
- Protocol Details: NCI 60 cell line screen (SRB), whole panel
- Format: cell-based
- Measurement Context: Table IV (LC50); panel summary

Please fill in: Range of Log10GI50 (Table IV) reported for "C[C@@H]1CC[C@H]2[C@@H](C)C(=O)O[C@@H]3O[C@]4(C)CC[C@@H]1[C@]32OO4" = 0.00

Please fill in: Range of Log10GI50 (Table IV) reported for CC1=C(C=Cc2cccc(C=CC3=C(C)C4CCC(C)C5CCC6(C)OOC45C(O3)O6)c2)OC2OC3(C)CCC4C(C)CCC1C24OO3 (centres unmarked) [VII-f] = 1.93

Further cases:
Please fill in: Range of Log10GI50 (Table IV) reported for CC(=O)O[C@H]1C(=O)[C@@]2(C)[C@H]([C@H](OC(=O)c3ccccc3)[C@]3(O)C[C@H](OC(=O)[C@H](O)[C@@H](NC(=O)c4ccccc4)c4ccccc4)C(C)=C1C3(C)C)[C@]1(OC(C)=O)CO[C@@H]1C[C@@H]2O [Paclitaxel, paclitaxel, reference compound] = 4.06

Please fill in: Range of Log10GI50 (Table IV) reported for CC1=C(C=Cc2cccc(C=CC3=C(C)C4CCC(C)C5CCC6(C)OOC45C(O3)O6)c2)OC2OC3(C)CCC4C(C)CCC1C24OO3 (centres unmarked) [VII-h] = .44

Please fill in: Range of Log10GI50 (Table IV) reported for CC1=C(C=Cc2cccc(C=CC3=C(C)C4CCC(C)C5CCC6(C)OOC45C(O3)O6)c2)OC2OC3(C)CCC4C(C)CCC1C24OO3 (centres unmarked) [VII-g] = 0.96

* * *

- Tested on: chloroquine-sensitive P. falciparum (NF54)
- Protocol Details: Antimalarial screening, [3H]hypoxanthine incorporation
- Format: cell-based, Plasmodium falciparum
- Measurement Context: Plasmodium falciparum, NF54, chloroquine-sensitive P. falciparum (NF54); read-out: IC50
Measured Attribute: IC50 (nM)
Numeric answer only, unit nM assumed.

Answered examples (2):
Please fill in: IC50 reported for "C[C@@H]1CC[C@H]2[C@@H](C)C(=O)O[C@@H]3O[C@]4(C)CC[C@@H]1[C@]32OO4" = 10

Please fill in: IC50 reported for CC1=C(C=O)O[C@@H]2O[C@@]3(C)CC[C@H]4[C@H](C)CC[C@@H]1[C@@]24OO3 [Ie, 10-Formylanhydroartemisinin] = 37

Consider now this further compound.
Please fill in: IC50 reported for CC1=C(C(=O)c2ccccc2)O[C@@H]2O[C@@]3(C)CC[C@H]4[C@H](C)CC[C@@H]1[C@@]24OO3 [I-4, 10-Benzoylanhydroartemisinin] = 4.6

* * *

- Tested on: HL-60(TB)
- Protocol Details: NCI 60 cell line screen (SRB), Leukemia
- Type: cell-based
- Measurement Context: PG=0
Measured Attribute: Log10TGI (log10M)
Numeric answer only, unit log10M assumed.

Answered examples (4):
Please fill in: Log10TGI reported for CC1=C(C=Cc2cccc(C=CC3=C(C)C4CCC(C)C5CCC6(C)OOC45C(O3)O6)c2)OC2OC3(C)CCC4C(C)CCC1C24OO3 (centres unmarked) [VII-h] = −7.59

Please fill in: Log10TGI reported for C[C@@H]1CC[C@H]2[C@@H](C)C(=O)O[C@@H]3O[C@]4(C)CC[C@@H]1[C@]32OO4 [Artemisinin, artemisinin] = −4.00

Please fill in: Log10TGI reported for CC(=O)O[C@H]1C(=O)[C@@]2(C)[C@H]([C@H](OC(=O)c3ccccc3)[C@]3(O)C[C@H](OC(=O)[C@H](O)[C@@H](NC(=O)c4ccccc4)c4ccccc4)C(C)=C1C3(C)C)[C@]1(OC(C)=O)CO[C@@H]1C[C@@H]2O [Paclitaxel, paclitaxel, reference compound] = −11.57

Please fill in: Log10TGI reported for CC1=C(C=Cc2cccc(C=CC3=C(C)C4CCC(C)C5CCC6(C)OOC45C(O3)O6)c2)OC2OC3(C)CCC4C(C)CCC1C24OO3 (centres unmarked) [VII-f] = −6.71

Further cases:
Please fill in: Log10TGI reported for CC1=C(C=Cc2cccc(C=CC3=C(C)C4CCC(C)C5CCC6(C)OOC45C(O3)O6)c2)OC2OC3(C)CCC4C(C)CCC1C24OO3 (centres unmarked) [VII-g] = −7.20
